B1: library; numbered along this chain (parent)
chain: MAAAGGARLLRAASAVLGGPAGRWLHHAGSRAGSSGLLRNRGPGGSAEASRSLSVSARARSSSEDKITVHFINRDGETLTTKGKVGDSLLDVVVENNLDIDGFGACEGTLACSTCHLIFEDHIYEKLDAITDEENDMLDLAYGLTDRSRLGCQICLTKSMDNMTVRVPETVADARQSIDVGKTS

Variants of: B1
Test: scaled log2 fold change in cell abundance, elesclomol vs control (0 = silent mean, 1 = nonsense mean) (scaled log2 ratio); higher = higher viability under elesclomol (loss of FDX1 cuproptosis function);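 also: variant abundance is its share of total variant reads in each endpoint sample, from next-generation sequencing of the integrated ORF PCR-amplified out of genomic DNA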
Conditions: with ABC1 FDX1 KO; elesclomol 5 nM; glucose 10 mM; 14 days
Value Kind: scaled log2 fold change

>  <Mut>
T170C

>  <Value Reported>
0.268

$$$$
>  <Mut>
T109V

>  <Value Reported>
-0.651

$$$$
>  <Mut>
V94L

>  <Value Reported>
0.0554

$$$$
>  <Mut>
L25H

>  <Value Reported>
0.124

$$$$
>  <Mut>
V16N

>  <Value Reported>
-0.645

$$$$
>  <Mut>
C155W

>  <Value Reported>
-0.0475

$$$$
>  <Mut>
K66L

>  <Value Reported>
-0.00608

$$$$
>  <Mut>
S35N

>  <Value Reported>
0.181

$$$$
>  <Mut>
K158I

>  <Value Reported>
-0.0888

$$$$
>  <Mut>
R166H

>  <Value Reported>
-0.236

$$$$
>  <Mut>
A28M

>  <Value Reported>
-0.0504

$$$$
>  <Mut>
L144H

>  <Value Reported>
-0.0895

$$$$
>  <Mut>
V171N

>  <Value Reported>
-0.524

$$$$
>  <Mut>
R39Q

>  <Value Reported>
-0.432

$$$$
>  <Mut>
V94Q

>  <Value Reported>
0.235

$$$$
>  <Mut>
L140D

>  <Value Reported>
-0.319

$$$$
>  <Mut>
K126A

>  <Value Reported>
-0.285

$$$$
>  <Mut>
L138W

>  <Value Reported>
0.885

$$$$
>  <Mut>
P43L

>  <Value Reported>
0.34

$$$$
>  <Mut>
R74T

>  <Value Reported>
-0.0213

$$$$
>  <Mut>
D65C

>  <Value Reported>
0.243

$$$$
>  <Mut>
A111L

>  <Value Reported>
0.263

$$$$
>  <Mut>
K126D

>  <Value Reported>
0.116

$$$$
>  <Mut>
S46A

>  <Value Reported>
0.558

$$$$
>  <Mut>
C115T

>  <Value Reported>
1.13

$$$$
>  <Mut>
C152E

>  <Value Reported>
1.03

$$$$
>  <Mut>
D146A

>  <Value Reported>
0.0826

$$$$
>  <Mut>
Y124E

>  <Value Reported>
0.16

$$$$
>  <Mut>
L140W

>  <Value Reported>
-0.629

$$$$
>  <Mut>
A59V

>  <Value Reported>
-0.507

$$$$
>  <Mut>
L127W

>  <Value Reported>
0.322

$$$$
>  <Mut>
R166Y

>  <Value Reported>
0.394

$$$$
>  <Mut>
N135W

>  <Value Reported>
-0.118

$$$$
>  <Mut>
T109S

>  <Value Reported>
-1.08

$$$$
>  <Mut>
L25C

>  <Value Reported>
0.238

$$$$

// provenance: the supplement of paper PMC12855868
